Values were extracted from patent US9802997B2.

Target: HLA-A*02:01 (Homo sapiens, UniProt P04439, D140Y/D185E/D98H/E176V/E277Q/G131W/G231S/I119V/I121R/I166T/I218V/L300P/L318F/N151K/N90K/P208A/P217A/Q86G/Q94H/R138H/R169H/T345S)
Assay: MHC binding assay (UV-ligand exchange, beta2m ELISA)
Conditions: binding to HLA-A*02:01, β2m ELISA
REPORTED_PROPERTY: Peptide exchange (MHC class I binding score, peptide exchange yield)

Looking up 41 (IVTEIISEI; listed as Homo sapiens) [compound 41] , I see its Peptide exchange (MHC class I binding score, peptide exchange yield) listed as +++ (≧50 = +++)

Peptide exchange (MHC class I binding score, peptide exchange yield) for 173 (RLIDIYKNV; listed as Homo sapiens) [compound 173] is +++ (≧50 = +++)

Note to self: Peptide exchange (MHC class I binding score, peptide exchange yield) recorded for 243 (GLAEFQENV; listed as Homo sapiens) [compound 243] was ++ (≧20% = ++)

Lab note: measured Peptide exchange (MHC class I binding score, peptide exchange yield) of 128 (SILTNISEV; listed as Homo sapiens) [compound 128] was ++ (≧20% = ++)

For this substance ( 279 (VLMDEGAVLTL; listed as Homo sapiens) [compound 279] ), measured Peptide exchange (MHC class I binding score, peptide exchange yield) is ++ (≧20% = ++)

With those in mind, consider the next substance.
The measured Peptide exchange (MHC class I binding score, peptide exchange yield) associated with 37 (QIVELIEKI; listed as Homo sapiens) [compound 37] reads ++ (≧20% = ++)

====

Biological target: HLA-A*02:01 (Homo sapiens, UniProt P04439, D140Y/D185E/D98H/E176V/E277Q/G131W/G231S/I119V/I121R/I166T/I218V/L300P/L318F/N151K/N90K/P208A/P217A/Q86G/Q94H/R138H/R169H/T345S)
Assay: MHC binding assay (UV-ligand exchange, beta2m ELISA)
Conditions: binding to HLA-A*02:01, β2m ELISA
REPORTED_PROPERTY: Peptide exchange (MHC class I binding score, peptide exchange yield)

Look over these answered cases.
Briefly, Peptide exchange (MHC class I binding score, peptide exchange yield) measured for 270 (TLLTFFHEL; listed as Homo sapiens) [compound 270] : +++ (≧50 = +++)

Briefly, Peptide exchange (MHC class I binding score, peptide exchange yield) measured for 71 (HMSGKLTNV; listed as Homo sapiens) [compound 71] : ++ (≧20% = ++)

Value of Peptide exchange (MHC class I binding score, peptide exchange yield) reported for the substance 145 (ALEEKLENV; listed as Homo sapiens) [compound 145] is +++ (≧50 = +++)

Item: 151 (DISKRIQSL; listed as Homo sapiens) [compound 151] | Peptide exchange (MHC class I binding score, peptide exchange yield): ++ (≧20% = ++)

Peptide exchange (MHC class I binding score, peptide exchange yield) reading for 4 (VLFGELPAL; listed as Homo sapiens) [compound 4] : +++ (≧50 = +++)

Next:
get_value(item= 218 (SLTGANITV; listed as Homo sapiens) [compound 218] , readout=Peptide exchange (MHC class I binding score, peptide exchange yield)) returns +++ (≧50 = +++)

Lab note: measured Peptide exchange (MHC class I binding score, peptide exchange yield) of 203 (FLFVDPELV; listed as Homo sapiens) [compound 203] was ++ (≧20% = ++)

Lab note: 190 (SLSTELFKV; listed as Homo sapiens) [compound 190] gave Peptide exchange (MHC class I binding score, peptide exchange yield) of +++ (≧50 = +++)

Record 18 (KTASINQNV; listed as Homo sapiens) [compound 18] , field Peptide exchange (MHC class I binding score, peptide exchange yield): ++ (≧20% = ++)
